# protocol_notes: In vivo pharmacokinetics in SD rats
# measurement_setup: male, SD, rat, plasma, oral, 20 mg/kg, rats, intragastric 20 mg/kg vs iv 2 mg/kg; read-out: Absolute bioavailability F0-t
assay_metric: bioavailability

Q: Look up bioavailability for this compound: COc1ncc(-c2ccc3nccc(-c4ccc(CN(C)C)cc4)c3c2)cc1NS(=O)(=O)c1ccc(F)cc1F [Compound 9]
Result: 98.8%

###

# Test system: U87MG (human brain star glioblastoma)
# protocol_notes: MTT assay, U87MG
# Assay type: cell-based
# measurement_setup: U-87 MG, 72 h
Field: label. Allowed values: Satisfied (IC50 < 3 µg/mL) or Not satisfied (IC50 >= 3 µg/mL).

Here are 4 compounds together with their reported answers.
{"smiles_repr": "CCN(CC)Cc1ccc(-c2ccnc3ccc(-c4cnc(OC)c(NS(=O)(=O)c5ccc(F)cc5F)c4)cc23)cc1", "discrete_label": "Satisfied"}
{"smiles_repr": "COc1ncc(-c2ccc3nccc(-n4cncn4)c3c2)cc1NS(=O)(=O)c1ccc(F)cc1F", "discrete_label": "Satisfied"}
{"smiles_repr": "COc1ncc(-c2ccc3nccc(N4CCOCC4)c3c2)cc1NS(=O)(=O)c1ccc(F)cc1F", "discrete_label": "Not satisfied"}
{"smiles_repr": "COc1ncc(-c2ccc3nccc(N4CCCC4)c3c2)cc1NS(=O)(=O)c1ccc(F)cc1F", "discrete_label": "Not satisfied"}

Q: In plain terms, does CCN(Cc1ccc(-c2ccnc3ccc(-c4cnc(OC)c(NS(=O)(=O)c5ccc(F)cc5F)c4)cc23)cc1)C1CCCCC1 come in under 3 µg/mL for IC50?
Result: Satisfied

Q: Lab note: confirm whether the reported IC50 for this compound is below 3 µg/mL, equality not counting. compound: COc1ncc(-c2ccc3nccc(-c4ccc(Cn5cncn5)cc4)c3c2)cc1NS(=O)(=O)c1ccc(F)cc1F
Result: Satisfied

Q: Consider COc1ncc(-c2ccc3nccc(-c4ccc(Cn5ccnc5C)cc4)c3c2)cc1NS(=O)(=O)c1ccc(F)cc1F . Does its IC50 lie strictly below 3 µg/mL?
Result: Satisfied

###

# target_entity: mTOR (Homo sapiens, UniProt P42345)
assay_metric: IC50
Please state the value followed by its unit.

Q: Tell me reported IC50 for COc1ncc(-c2ccc3nccc(-c4ccc(CN(C)CCO)cc4)c3c2)cc1NS(=O)(=O)c1ccc(F)cc1F , tested with mTOR (Homo sapiens, UniProt P42345).
Result: 2.2 nM

###

A short record of IC50 observed with PI3Kβ (Homo sapiens) follows.
Sequence (P42338 whole entry, species assumed): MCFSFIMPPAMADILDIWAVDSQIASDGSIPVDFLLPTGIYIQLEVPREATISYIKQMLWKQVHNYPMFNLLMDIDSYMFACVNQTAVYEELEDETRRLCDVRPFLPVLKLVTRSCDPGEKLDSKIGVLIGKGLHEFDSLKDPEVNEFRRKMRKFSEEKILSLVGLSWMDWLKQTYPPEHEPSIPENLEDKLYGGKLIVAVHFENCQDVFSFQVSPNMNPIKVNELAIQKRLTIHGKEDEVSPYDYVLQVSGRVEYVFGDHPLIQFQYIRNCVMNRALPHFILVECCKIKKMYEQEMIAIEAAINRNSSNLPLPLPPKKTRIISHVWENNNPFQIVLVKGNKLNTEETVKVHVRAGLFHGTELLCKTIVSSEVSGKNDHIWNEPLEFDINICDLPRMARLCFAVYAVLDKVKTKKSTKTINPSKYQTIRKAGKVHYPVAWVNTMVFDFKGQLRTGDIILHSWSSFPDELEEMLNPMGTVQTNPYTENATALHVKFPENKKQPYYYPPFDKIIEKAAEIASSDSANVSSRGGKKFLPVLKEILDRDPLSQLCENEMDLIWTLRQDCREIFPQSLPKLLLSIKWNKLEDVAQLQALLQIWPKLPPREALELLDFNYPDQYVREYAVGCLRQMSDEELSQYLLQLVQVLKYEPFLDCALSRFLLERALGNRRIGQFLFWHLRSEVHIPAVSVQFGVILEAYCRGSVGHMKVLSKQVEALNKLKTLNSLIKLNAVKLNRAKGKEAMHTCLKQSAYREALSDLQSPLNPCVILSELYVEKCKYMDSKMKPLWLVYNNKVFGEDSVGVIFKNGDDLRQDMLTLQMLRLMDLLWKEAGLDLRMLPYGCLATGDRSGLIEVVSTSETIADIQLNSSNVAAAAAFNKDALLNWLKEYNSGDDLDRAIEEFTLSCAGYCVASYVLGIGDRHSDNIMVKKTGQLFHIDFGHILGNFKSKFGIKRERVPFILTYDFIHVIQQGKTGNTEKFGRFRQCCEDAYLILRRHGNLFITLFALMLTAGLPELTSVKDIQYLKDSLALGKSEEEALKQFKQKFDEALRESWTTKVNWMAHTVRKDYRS
Sequence (P27986 whole entry partner, species assumed): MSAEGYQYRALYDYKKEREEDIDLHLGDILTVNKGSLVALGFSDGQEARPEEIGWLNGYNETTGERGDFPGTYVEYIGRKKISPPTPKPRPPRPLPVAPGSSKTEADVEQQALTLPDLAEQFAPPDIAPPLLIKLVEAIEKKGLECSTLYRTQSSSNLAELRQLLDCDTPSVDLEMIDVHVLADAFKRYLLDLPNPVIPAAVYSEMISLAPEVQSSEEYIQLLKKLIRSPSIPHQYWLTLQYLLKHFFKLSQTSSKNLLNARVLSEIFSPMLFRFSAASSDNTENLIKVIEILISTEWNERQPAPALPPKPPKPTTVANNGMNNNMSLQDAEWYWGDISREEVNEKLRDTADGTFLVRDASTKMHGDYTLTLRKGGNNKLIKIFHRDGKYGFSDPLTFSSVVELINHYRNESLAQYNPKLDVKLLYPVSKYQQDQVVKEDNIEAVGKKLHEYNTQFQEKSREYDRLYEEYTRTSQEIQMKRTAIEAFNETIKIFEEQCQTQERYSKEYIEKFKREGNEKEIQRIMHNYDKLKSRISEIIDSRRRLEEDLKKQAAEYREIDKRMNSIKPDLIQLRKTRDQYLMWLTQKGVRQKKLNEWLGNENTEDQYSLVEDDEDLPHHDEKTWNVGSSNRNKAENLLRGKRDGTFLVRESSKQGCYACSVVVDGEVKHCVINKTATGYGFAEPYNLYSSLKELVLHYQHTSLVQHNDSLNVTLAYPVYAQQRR
State the answer as a number, implicitly in nM.

{"molecule": "COc1ncc(-c2ccc3nccc(-c4ccc(CN(C)C)cc4)c3c2)cc1NS(=O)(=O)c1ccc(F)cc1F [Compound 9]", "IC50 (nM)": 1.8}

Q: Provide the documented IC50 with PI3Kβ (Homo sapiens) as the system for COc1ncc(-c2ccc3nccc(-c4ccc(CN(C)CCO)cc4)c3c2)cc1NS(=O)(=O)c1ccc(F)cc1F [Compound 17]
Result: 1.1

Q: // fetch PI3Kβ (Homo sapiens) IC50 for COc1ncc(-c2ccc3nccc(-n4cncn4)c3c2)cc1NS(=O)(=O)c1ccc(F)cc1F [Compound 1]
Result: 3.6

###

# protocol_notes: In vivo pharmacokinetics in SD rats
# measurement_setup: male, SD, rat, plasma, iv, 2 mg/kg, rat plasma, tail vein injection
assay_metric: half-life (h)
Answer in h, number only, no unit symbol.

Q: What half-life value was documented for this compound, COc1ncc(-c2ccc3nccc(-c4ccc(CN(C)C)cc4)c3c2)cc1NS(=O)(=O)c1ccc(F)cc1F ?
Result: 6.55

Attribution: patent US20160168118A1
